Biological target: Grb2 SH2 (UniProt P62993)
Assay: SH2 binding enrichment of the phosphorylated peptide, bacterial display (enrichment ratio); higher = better substrate or ligand; peptides without Tyr show the background
reported.endpoint: SH2 binding enrichment

Check out these entries, answers already filled in.
In [3]: df
Out[3]:
                       biosequence               assay_target  recorded_value
0    NDDDVYLSLEE [VAV2_Y142_R143L]  Grb2 SH2 (UniProt P62993)           0.834
1   VSTKVYKRFPS [BEST1_Y148_A146K]  Grb2 SH2 (UniProt P62993)             1.1
2         EKAEVYGSENE [RIOK2_Y348]  Grb2 SH2 (UniProt P62993)           0.825
3  ECKFLYSRKEG [PTPN11_Y263_L261F]  Grb2 SH2 (UniProt P62993)            1.06

A = NTFEKYLGEEF [TF_Y669_YF]
B = TLKVGYTEKQR [EPHA3_Y659]
C = TSSAVYMNLAS [GATAD2B_Y317_I316V]
Order each entry by recorded SH2 binding enrichment, climbing from the minimum. Please write the labels in the order that was asked for.
A, B, C
(A: 0.667, B: 1.08, C: 7.6)

I = LAETSYVTVLE [MAGEA1_Y276_K278T]
II = FSGIFYKPESL [L2HGDH_Y103_H98Y_YF]
I would appreciate it if you could say which entry, I or II , has the lower SH2 binding enrichment value. Mark your selection by writing its label.
I

1 = NDPMEYAKQHG [ASS1_Y163_L160P]
2 = QGLRLYRSHLA [BTK_Y617_P619S]
Lower value of SH2 binding enrichment belongs to which: 1 or 2 ? Indicate your choice by writing its label.
1

###

Molecular target: Hck (UniProt P08631)
Sequence (P08631 whole entry, looked up): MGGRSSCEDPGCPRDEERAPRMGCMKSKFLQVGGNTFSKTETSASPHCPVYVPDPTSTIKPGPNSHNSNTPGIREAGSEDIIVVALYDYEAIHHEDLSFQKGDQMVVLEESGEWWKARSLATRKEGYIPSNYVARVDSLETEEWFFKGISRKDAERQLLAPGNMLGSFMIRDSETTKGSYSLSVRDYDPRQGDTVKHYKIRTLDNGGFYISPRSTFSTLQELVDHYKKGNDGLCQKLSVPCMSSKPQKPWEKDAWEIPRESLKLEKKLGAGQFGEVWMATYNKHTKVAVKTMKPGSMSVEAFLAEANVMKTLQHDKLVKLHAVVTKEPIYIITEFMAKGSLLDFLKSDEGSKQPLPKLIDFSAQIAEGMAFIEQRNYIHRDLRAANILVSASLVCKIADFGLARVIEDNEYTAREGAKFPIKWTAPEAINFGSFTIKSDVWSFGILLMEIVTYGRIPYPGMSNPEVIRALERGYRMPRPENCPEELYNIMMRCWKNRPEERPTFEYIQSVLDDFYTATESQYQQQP
Assay: phosphorylation enrichment, bacterial display (enrichment ratio); higher = better substrate or ligand; peptides without Tyr show the background
reported.endpoint: phosphorylation enrichment
Number only, please.

In [3]: df
Out[3]:
                    biosequence           reported_endpoint  recorded_value
0     SVNIRYLLFPS [SERAC1_Y548]  phosphorylation enrichment           0.558
1  TLSGIYQYSIA [FOXL2_Y81_I84S]  phosphorylation enrichment            3.56
2       KKEGPYDVVVL [PARK7_Y67]  phosphorylation enrichment            0.57
3      QNTGDYYDLYG [PTPN11_Y62]  phosphorylation enrichment             4.7
4    FFCRWYRNRKS [EREG_Y144_YF]  phosphorylation enrichment           0.326

Consider RDMMDYMLQGV [CYP21A2_Y259] . Its measured phosphorylation enrichment is 0.581

phosphorylation enrichment for LARDIYKNDFF [ROS1_Y2110_YF] is 0.599

###

Tested on: Fer (mouse)
Experiment: phosphorylation enrichment, bacterial display (enrichment ratio); higher = better substrate or ligand; peptides without Tyr show the background
// reported phosphorylation enrichment per item
Just the number.

Would you please look over these solved cases?
>>> df
                        biosequence  recorded_value
0    SILAVYSKDIY [PANK2_Y400_N404I]            0.45
1        FFCRWYRNRKS [EREG_Y144_YF]           0.312
2  RRSQSYNPTSG [PLEKHA2_Y185_I186N]           0.458
3   VVDVTYDDVPI [FLNB_Y1308_E1305D]            3.96

Let's switch to this sequence now.
For this sequence ( KRLAVYIDEEA [EPM2A_Y304_P301L] ), measured phosphorylation enrichment is 0.524

###

Each item that follows carries a reported phosphorylation enrichment.
Molecular target: EPHB2 (UniProt P29323)
Sequence (P29323 whole entry, looked up): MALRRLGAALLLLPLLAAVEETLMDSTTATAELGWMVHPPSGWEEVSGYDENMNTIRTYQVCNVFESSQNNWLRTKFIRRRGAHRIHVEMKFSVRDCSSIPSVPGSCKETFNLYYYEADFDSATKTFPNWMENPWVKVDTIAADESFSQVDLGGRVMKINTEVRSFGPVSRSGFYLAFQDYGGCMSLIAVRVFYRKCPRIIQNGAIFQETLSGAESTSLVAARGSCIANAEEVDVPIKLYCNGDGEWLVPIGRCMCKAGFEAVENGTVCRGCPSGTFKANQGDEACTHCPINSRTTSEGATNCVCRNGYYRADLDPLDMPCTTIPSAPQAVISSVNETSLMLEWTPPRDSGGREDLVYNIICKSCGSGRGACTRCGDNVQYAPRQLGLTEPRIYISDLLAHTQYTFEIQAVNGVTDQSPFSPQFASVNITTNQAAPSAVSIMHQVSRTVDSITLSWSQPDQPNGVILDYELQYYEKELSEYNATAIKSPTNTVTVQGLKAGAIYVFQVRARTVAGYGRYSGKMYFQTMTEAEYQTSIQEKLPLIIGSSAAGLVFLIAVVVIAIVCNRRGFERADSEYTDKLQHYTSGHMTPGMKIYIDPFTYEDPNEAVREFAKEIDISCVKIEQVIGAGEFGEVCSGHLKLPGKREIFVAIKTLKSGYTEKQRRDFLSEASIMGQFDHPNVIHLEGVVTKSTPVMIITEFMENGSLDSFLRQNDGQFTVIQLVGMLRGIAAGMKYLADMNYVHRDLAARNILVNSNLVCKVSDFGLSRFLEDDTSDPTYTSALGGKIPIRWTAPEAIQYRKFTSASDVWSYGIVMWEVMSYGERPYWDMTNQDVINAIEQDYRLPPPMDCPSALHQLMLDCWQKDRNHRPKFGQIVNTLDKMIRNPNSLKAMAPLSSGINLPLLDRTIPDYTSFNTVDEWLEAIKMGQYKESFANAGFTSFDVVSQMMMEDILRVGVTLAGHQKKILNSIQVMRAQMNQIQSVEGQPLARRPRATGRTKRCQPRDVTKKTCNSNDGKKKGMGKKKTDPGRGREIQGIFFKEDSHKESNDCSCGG
Test: phosphorylation enrichment, bacterial display (enrichment ratio); higher = better substrate or ligand; peptides without Tyr show the background
Answer field: number only, no words.

Past entries and their recorded results:
In [3]: df
Out[3]:
                           biosequence            assay_target  recorded_value
0       HGQVNYEEFVQ [CALM2_Y139_D134H]  EPHB2 (UniProt P29323)             5.8
1  REVPVYTFSEP [FAM120B_Y368_D370Y_YF]  EPHB2 (UniProt P29323)            1.06
2        SVTSTYSPALN [TP53_Y126_C124S]  EPHB2 (UniProt P29323)           0.426
3        ATHRGYDLDNP [MMUT_Y146_S148L]  EPHB2 (UniProt P29323)           0.434

The measured phosphorylation enrichment that SKHRLYSDLQT [PTCHD1_Y84] showed for EPHB2 (UniProt P29323) is 0.484

Reported EPHB2 (UniProt P29323) phosphorylation enrichment for item VFSATYHPDHW [EFCAB12_Y544_P541S_YF] was 0.519

###

Each entry below carries its recorded phosphorylation enrichment.
Molecular target: Jak2 (UniProt O60674)
Sequence (O60674 whole entry, looked up): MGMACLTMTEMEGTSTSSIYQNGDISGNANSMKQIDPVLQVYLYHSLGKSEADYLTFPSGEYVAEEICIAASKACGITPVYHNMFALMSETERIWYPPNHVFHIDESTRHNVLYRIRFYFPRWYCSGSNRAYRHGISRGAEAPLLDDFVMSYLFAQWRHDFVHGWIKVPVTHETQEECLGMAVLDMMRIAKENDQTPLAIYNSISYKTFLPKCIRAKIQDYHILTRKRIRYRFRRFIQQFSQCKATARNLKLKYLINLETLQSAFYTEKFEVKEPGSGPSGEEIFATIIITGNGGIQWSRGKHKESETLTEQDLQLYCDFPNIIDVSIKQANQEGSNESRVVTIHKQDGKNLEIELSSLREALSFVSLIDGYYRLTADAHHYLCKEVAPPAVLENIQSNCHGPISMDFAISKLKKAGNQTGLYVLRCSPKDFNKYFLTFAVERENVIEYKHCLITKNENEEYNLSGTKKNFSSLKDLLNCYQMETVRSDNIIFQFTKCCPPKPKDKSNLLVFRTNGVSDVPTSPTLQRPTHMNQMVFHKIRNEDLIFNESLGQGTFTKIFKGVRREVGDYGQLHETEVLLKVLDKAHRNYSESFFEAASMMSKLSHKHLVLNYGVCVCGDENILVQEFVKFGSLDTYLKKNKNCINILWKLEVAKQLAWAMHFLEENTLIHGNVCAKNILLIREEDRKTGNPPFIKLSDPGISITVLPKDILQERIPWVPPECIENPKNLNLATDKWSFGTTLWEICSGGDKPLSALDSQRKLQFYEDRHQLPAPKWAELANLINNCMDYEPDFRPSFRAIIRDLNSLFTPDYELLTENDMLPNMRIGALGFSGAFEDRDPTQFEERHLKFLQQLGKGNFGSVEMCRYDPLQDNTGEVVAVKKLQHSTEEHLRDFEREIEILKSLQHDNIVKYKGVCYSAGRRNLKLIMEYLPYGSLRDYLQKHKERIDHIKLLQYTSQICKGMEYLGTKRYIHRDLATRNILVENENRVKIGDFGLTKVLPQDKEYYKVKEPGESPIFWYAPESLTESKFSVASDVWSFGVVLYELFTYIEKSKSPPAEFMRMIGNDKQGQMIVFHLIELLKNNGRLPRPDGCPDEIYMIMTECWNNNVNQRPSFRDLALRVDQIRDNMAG
Assay: phosphorylation enrichment, bacterial display (enrichment ratio); higher = better substrate or ligand; peptides without Tyr show the background
Reply briefly: the number, and no unit.

                       biosequence           reported_endpoint  recorded_value
0   LNPDGYKKAYE [CPXM2_Y427_E428K]  phosphorylation enrichment               1
1   PPSGEYFGHCG [TRIP6_Y275_Q278H]  phosphorylation enrichment           0.999
2    LFSDHYSPSGR [TMPRSS12_Y23_YF]  phosphorylation enrichment           0.473
3   RRDRDYTNLPS [CSF1R_Y923_E920D]  phosphorylation enrichment           0.639
4   SRDDYYETIAM [NPY1R_Y347_D346Y]  phosphorylation enrichment           0.808
5  KKRSVYIKVLF [CC2D2A_Y683_L684I]  phosphorylation enrichment           0.798

Measured phosphorylation enrichment, IRFPPYTDWNQ [ALDH3B2_Y365_H361R_YF] : 0.555

Looking up RFLRGYRQHAY [HLA-A_Y137_D140H] , I found its phosphorylation enrichment recorded as 0.979

// recorded phosphorylation enrichment for RMGNLYDIDEN [GRIN2A_Y1246_D1251N] : 3.11

Reported phosphorylation enrichment of VDTLWYKFLKR [EPM2A_Y86_F84L] : 0.892

###

Target: Grb2 SH2 (UniProt P62993)
Assay: SH2 binding enrichment of the phosphorylated peptide, bacterial display (enrichment ratio); higher = better substrate or ligand; peptides without Tyr show the background
reported.endpoint: SH2 binding enrichment

For orientation, consider the following solved cases.
In [3]: df
Out[3]:
                       biosequence               assay_target       reported_endpoint  recorded_value
0  EKLQKYYRKNP [EHHADH_Y682_Q685K]  Grb2 SH2 (UniProt P62993)  SH2 binding enrichment            0.95
1   HGQVNYEEFVQ [CALM2_Y139_D134H]  Grb2 SH2 (UniProt P62993)  SH2 binding enrichment           0.694
2      CGQDPCIRELG [UROS_Y19_Y19C]  Grb2 SH2 (UniProt P62993)  SH2 binding enrichment            1.03
3         QPDFLYDHIQP [TRRAP_Y862]  Grb2 SH2 (UniProt P62993)  SH2 binding enrichment           0.964
4    YSIDHYLGKEM [G6PD_Y202_R198S]  Grb2 SH2 (UniProt P62993)  SH2 binding enrichment            0.72

a = EKRDAYVSRLN [GSR_Y150]
b = PNAYIYVVQLP [L1CAM_Y420_A415P]
Higher SH2 binding enrichment between a and b ? Identify your pick by its label.
b

###

Measured phosphorylation enrichment accompanies every entry in the list below.
Molecular target: EPHB1 (UniProt P54762)
Sequence (P54762 whole entry, looked up): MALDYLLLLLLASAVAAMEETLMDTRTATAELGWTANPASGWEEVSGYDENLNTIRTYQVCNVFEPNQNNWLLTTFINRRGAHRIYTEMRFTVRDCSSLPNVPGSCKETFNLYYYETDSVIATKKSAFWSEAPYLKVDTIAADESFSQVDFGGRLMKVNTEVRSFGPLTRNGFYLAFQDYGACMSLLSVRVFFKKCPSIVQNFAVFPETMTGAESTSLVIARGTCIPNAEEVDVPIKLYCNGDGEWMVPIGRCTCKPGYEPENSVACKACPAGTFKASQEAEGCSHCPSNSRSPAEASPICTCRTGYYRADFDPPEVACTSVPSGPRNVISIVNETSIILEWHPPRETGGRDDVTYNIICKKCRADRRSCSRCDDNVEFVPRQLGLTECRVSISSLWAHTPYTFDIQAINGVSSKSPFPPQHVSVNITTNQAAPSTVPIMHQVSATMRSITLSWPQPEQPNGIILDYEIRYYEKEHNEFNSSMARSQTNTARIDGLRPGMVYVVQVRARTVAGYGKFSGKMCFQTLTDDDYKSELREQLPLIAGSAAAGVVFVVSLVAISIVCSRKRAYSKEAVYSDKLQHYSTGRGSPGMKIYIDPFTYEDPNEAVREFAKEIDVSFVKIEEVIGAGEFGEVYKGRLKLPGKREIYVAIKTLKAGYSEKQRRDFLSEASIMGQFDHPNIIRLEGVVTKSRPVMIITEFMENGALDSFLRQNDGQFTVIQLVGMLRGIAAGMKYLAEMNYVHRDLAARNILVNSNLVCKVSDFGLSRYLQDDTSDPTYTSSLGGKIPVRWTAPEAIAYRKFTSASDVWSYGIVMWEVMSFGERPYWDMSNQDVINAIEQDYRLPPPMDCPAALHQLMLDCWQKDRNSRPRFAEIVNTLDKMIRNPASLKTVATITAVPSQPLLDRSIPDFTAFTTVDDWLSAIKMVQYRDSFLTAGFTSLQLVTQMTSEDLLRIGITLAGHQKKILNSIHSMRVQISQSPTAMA
Assay: phosphorylation enrichment, bacterial display (enrichment ratio); higher = better substrate or ligand; peptides without Tyr show the background
# print the numeric value only

In [3]: df
Out[3]:
                        biosequence           reported_endpoint  recorded_value
0      VEYAKYGSLQG [RET_Y809_R813Q]  phosphorylation enrichment           0.505
1    SAPDSYIRIGN [SLC38A4_Y27_G29R]  phosphorylation enrichment           0.359
2  VKANTYENFWP [GATM_Y100_K102N_YF]  phosphorylation enrichment             3.6

For GLDGSYLLTDS [SH2D1A_Y29_R32T] on EPHB1 (UniProt P54762), measured phosphorylation enrichment was 0.491

Result for CGSLLYGLVHQ [PRKCG_Y122] , tested on EPHB1 (UniProt P54762), phosphorylation enrichment: 2.22

Field phosphorylation enrichment (EPHB1 (UniProt P54762)), entry PSRKDYETFQP [CTNND2_Y1154_YF] : 1.04

Observed phosphorylation enrichment, EPHB1 (UniProt P54762), LEDEVYAQKMK [TPM2_Y261] : 2.92

Tested system EPHB1 (UniProt P54762); phosphorylation enrichment recorded for RLPNGYGLAYR [DLK1_Y262_S260N] was 0.416

Summary: FISVGYVDDTL [HLA-B_Y51_Q56L] , EPHB1 (UniProt P54762), phosphorylation enrichment = 0.738

Result for NVADHYRVYKP [ATP6V0D2_Y271_G272R] , tested on EPHB1 (UniProt P54762), phosphorylation enrichment: 0.54

Form field phosphorylation enrichment for item HRLSTYTKMLF [CHST8_Y251] on EPHB1 (UniProt P54762): 0.723
